# procedureSummary: NCI Yeast Anticancer Drug Screen. Data for the rad50 strain (AID 155);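 also: 0% = growth of vehicle-only cultures of the same strain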
# conditionSummary: S. cerevisiae rad50 strain growth inhibition; at 50.0 µM; stronger effect = higher value
About 79,000 compounds went through this panel and 15% of them were active in at least one assay; those are over-represented in the sample as a whole.

[
  {
    "molecule": "CN(C)CC(O)c1ccc(Cl)c2ccccc12 (configuration not stated)",
    "growth inhibition / %": 3.95
  },
  {
    "molecule": "O=S(=O)(c1ccc(NC(=S)N2CCOCC2)cc1)N1CCCCC1",
    "growth inhibition / %": -3.45
  },
  {
    "molecule": "C[P+](Cc1ccc([N+](=O)[O-])cc1)(c1ccccc1)c1ccccc1",
    "growth inhibition / %": -2.85
  },
  {
    "molecule": "O=C1CSC(c2cccc(F)c2)N1CCN1C(=O)CSC1c1cccc(F)c1 (configuration not stated)",
    "growth inhibition / %": 27.7
  },
  {
    "molecule": "N=C(Oc1ccccc1)c1ccccc1",
    "growth inhibition / %": -1.95
  },
  {
    "molecule": "CCOC(=O)C1=C(C)NC(C)=C(C(=O)OCC)C1C",
    "growth inhibition / %": -29.1
  },
  {
    "molecule": "CC(=O)N1CCc2[nH]c3ccccc3c2CC1",
    "growth inhibition / %": 10.9
  },
  {
    "molecule": "OC1CCC(O)[C@H]2[C@@H]1[C@@H]1S[C@H]2c2ccccc21 (some centres not stated)",
    "growth inhibition / %": -2.55
  },
  {
    "molecule": "CN(C)S(=O)(=O)N(C)C",
    "growth inhibition / %": -1.55
  },
  {
    "molecule": "CCCCCCCCCCCCCCCCOc1ccc(C(=O)O)cc1",
    "growth inhibition / %": 1.4
  },
  {
    "molecule": "COC(=O)C1OC(n2ccc(=O)[nH]c2=O)C(OC(C)=O)C(OC(C)=O)C1OC(C)=O (configuration not stated)",
    "growth inhibition / %": 2.2
  },
  {
    "molecule": "CN(C)c1nc(N/N=C\\C(O)C(O)C(O)C(O)CO)nc(N(C)C)n1 (configuration not stated)",
    "growth inhibition / %": -1.55
  }
]

----------
Known growth inhibition of a selection of compounds
# procedureSummary: NCI Yeast Anticancer Drug Screen. Data for the sgs1 mgt1 strain (AID 161);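 also: 0% = growth of cultures given vehicle only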
# conditionSummary: S. cerevisiae sgs1 mgt1 strain, at 50.0 µM, stronger effect = higher value
The panel holds about 79,000 compounds, 15% with a hit somewhere; the sample as a whole holds those more often. Where a SMILES comes first, the peptide text is derived from it. The star is where a group is joined. ONp = O=[N+]([O-])c1ccc(O*)cc1; Tos = Cc1ccc(S(=O)(=O)*)cc1
readoutLabel: growth inhibition (%)

[
  {
    "compound": "O=S(Nc1ccc(Cl)cc1)c1ccccc1 (configuration not stated)",
    "readoutLabel": "growth inhibition",
    "observedValue": 31.1
  },
  {
    "compound": "Cc1ccnc(=O)[nH]1",
    "readoutLabel": "growth inhibition",
    "observedValue": 11.8
  },
  {
    "compound": "Cc1cccc(C(O)c2ccccn2)c1O (configuration not stated)",
    "readoutLabel": "growth inhibition",
    "observedValue": -6.8
  },
  {
    "compound": "CC(=O)N(C)N=Nc1ccc(Cl)cc1",
    "readoutLabel": "growth inhibition",
    "observedValue": 2.05
  },
  {
    "compound": "CC1(c2cccs2)C(=O)NC(=O)N1C(=O)CCl (configuration not stated)",
    "readoutLabel": "growth inhibition",
    "observedValue": -6.65
  },
  {
    "compound": "CN1CCCn2c(nc3ccccc3c2=O)C1",
    "readoutLabel": "growth inhibition",
    "observedValue": -5.55
  },
  {
    "compound": "O=C1CC2c3ccccc3C(O)(CC1=O)c1ccccc12",
    "readoutLabel": "growth inhibition",
    "observedValue": 11.7
  },
  {
    "compound": "COc1cccc2c1CC/C(=C\\c1ccccn1)C2=O",
    "readoutLabel": "growth inhibition",
    "observedValue": 98.9
  },
  {
    "compound": "CCOC(=O)c1cnc2ccccc2c1N=[N+]=[N-]",
    "readoutLabel": "growth inhibition",
    "observedValue": 25.5
  },
  {
    "compound": "CCOC(=O)c1c2ccc(/C=C/c3ccccn3)ccc-2c(C(=O)OCC)c1N",
    "readoutLabel": "growth inhibition",
    "observedValue": -1
  },
  {
    "compound": "CCC(=O)c1nc(N)[nH]c1CC",
    "readoutLabel": "growth inhibition",
    "observedValue": -12.1
  },
  {
    "compound": "Oc1ccc2ccccc2c1-c1c(OC(c2ccccc2)c2ccccc2)ccc2ccccc12",
    "readoutLabel": "growth inhibition",
    "observedValue": 0.2
  },
  {
    "compound": "CCOC(=O)C(=O)Nc1ccccc1OCC",
    "readoutLabel": "growth inhibition",
    "observedValue": -11.2
  },
  {
    "compound": "CCOC1CCC=CO1 (configuration not stated)",
    "readoutLabel": "growth inhibition",
    "observedValue": 39
  },
  {
    "compound": "Cc1ccc2cc(C)c(C)cc2c1",
    "readoutLabel": "growth inhibition",
    "observedValue": -10.8
  },
  {
    "compound": "CC(=O)Oc1ccccc1C#CC(=O)O",
    "readoutLabel": "growth inhibition",
    "observedValue": 34
  },
  {
    "compound": "O=C(O)C(c1ccccc1)C1(O)CC2CCC1C2 (configuration not stated)",
    "readoutLabel": "growth inhibition",
    "observedValue": -36.6
  },
  {
    "compound": "CC[C@@H]1CN(C)[C@H]2Cc3c([nH]c4ccccc34)C(=O)C[C@H]1C2C(=O)OC (some centres not stated)",
    "readoutLabel": "growth inhibition",
    "observedValue": -19.6
  },
  {
    "compound": "O=C1NC(=O)C(=CN2C(=O)/C(=C/c3ccc(O)cc3)SC2=S)C(=O)N1",
    "readoutLabel": "growth inhibition",
    "observedValue": 23.1
  },
  {
    "compound": "CC(=O)OC1COC(N2C(=O)C(=O)c3ccccc32)C(OC(C)=O)C1OC(C)=O (configuration not stated)",
    "readoutLabel": "growth inhibition",
    "observedValue": -1.5
  },
  {
    "compound": "NNC(=O)CC(N)C(=O)O (configuration not stated)",
    "readoutLabel": "growth inhibition",
    "observedValue": -4.2
  },
  {
    "compound": "Cc1cc(S(=O)(=O)O)cc(Cl)c1N",
    "readoutLabel": "growth inhibition",
    "observedValue": -0.85
  },
  {
    "compound": "Cc1ncc([N+](=O)[O-])n1CCNCCCCn1ccnc1[N+](=O)[O-]",
    "readoutLabel": "growth inhibition",
    "observedValue": -6.15
  },
  {
    "compound": "c1c2c(cc3c1OCN(C1CC1)C3)OCN(C1CC1)C2",
    "readoutLabel": "growth inhibition",
    "observedValue": 10
  },
  {
    "compound": "CCNc1nc(C)nc2c1cnn2-c1ccc(C)cc1",
    "readoutLabel": "growth inhibition",
    "observedValue": 25.3
  },
  {
    "compound": "Cc1ccc(S(=O)(=O)NCC(=O)NCC(=O)Oc2ccc([N+](=O)[O-])cc2)cc1 (Tos-Gly-Gly-ONp)",
    "readoutLabel": "growth inhibition",
    "observedValue": 42.2
  },
  {
    "compound": "COC(=O)Nc1c2c(nc3ccccc13)-c1ccccc1C(C)(C)C2OC (configuration not stated)",
    "readoutLabel": "growth inhibition",
    "observedValue": 58.1
  },
  {
    "compound": "O=C1c2ccccc2CC12CCC1(CC2)OCCO1",
    "readoutLabel": "growth inhibition",
    "observedValue": 3.55
  },
  {
    "compound": "Cc1[nH]c(C)c2ccc(=O)ccc12",
    "readoutLabel": "growth inhibition",
    "observedValue": -16.6
  },
  {
    "compound": "CCCCCCCCCC/C=C/C=O",
    "readoutLabel": "growth inhibition",
    "observedValue": 53.8
  },
  {
    "compound": "CS(=O)(=O)c1ccc(C=O)cc1",
    "readoutLabel": "growth inhibition",
    "observedValue": 2.25
  },
  {
    "compound": "CC(=O)Oc1ccc(/C=C/c2ccccn2)cc1",
    "readoutLabel": "growth inhibition",
    "observedValue": -1.5
  },
  {
    "compound": "[Cl][Ce]([Cl])[Cl]",
    "readoutLabel": "growth inhibition",
    "observedValue": 24.9
  },
  {
    "compound": "Nc1ccc(P(=O)(Nc2ccc3ccccc3c2)Nc2ccc3ccccc3c2)cc1",
    "readoutLabel": "growth inhibition",
    "observedValue": 89.2
  },
  {
    "compound": "CC(C)(C)OC(=O)CC(O)c1ccccc1 (configuration not stated)",
    "readoutLabel": "growth inhibition",
    "observedValue": 3.65
  },
  {
    "compound": "O=C(O)C1C(C(=O)O)C1c1ncnc2nc[nH]c12 (configuration not stated)",
    "readoutLabel": "growth inhibition",
    "observedValue": -4.95
  },
  {
    "compound": "Cc1ccc(Cl)cc1NC(=S)N(C)C",
    "readoutLabel": "growth inhibition",
    "observedValue": 34.7
  },
  {
    "compound": "CCCCCCCc1ccc(N=Cc2ccc(OCCC)cc2)cc1",
    "readoutLabel": "growth inhibition",
    "observedValue": 98.9
  },
  {
    "compound": "O=C(OC(c1ccccc1)c1ccccc1)c1ccccc1C(=O)c1ccccc1",
    "readoutLabel": "growth inhibition",
    "observedValue": -21
  },
  {
    "compound": "CC(=O)Nc1ccc[n+](C)c1",
    "readoutLabel": "growth inhibition",
    "observedValue": -6.9
  },
  {
    "compound": "CN1CCC(CN)(c2ccccc2)CC1",
    "readoutLabel": "growth inhibition",
    "observedValue": 0.35
  },
  {
    "compound": "CCN(CC)CCOC(=O)C(S)(c1ccccc1)C1CCCCC1 (configuration not stated)",
    "readoutLabel": "growth inhibition",
    "observedValue": 1
  },
  {
    "compound": "CCCNS(C)(=O)=O",
    "readoutLabel": "growth inhibition",
    "observedValue": 10.2
  },
  {
    "compound": "CCOC(=O)C(=CNc1cccc(N)n1)C(=O)OCC",
    "readoutLabel": "growth inhibition",
    "observedValue": 28
  },
  {
    "compound": "NC(=O)NC(NC(=O)NC(NC(N)=O)c1ccco1)c1ccco1 (configuration not stated)",
    "readoutLabel": "growth inhibition",
    "observedValue": 10.7
  },
  {
    "compound": "Cc1cccc[n+]1CC(=O)c1ccccc1[N+](=O)[O-]",
    "readoutLabel": "growth inhibition",
    "observedValue": -3.3
  },
  {
    "compound": "CCc1ccc(NC(C)=O)cc1C",
    "readoutLabel": "growth inhibition",
    "observedValue": -0.95
  },
  {
    "compound": "Cc1cc(Cl)ccc1N=C1NC(=O)C(CC(=O)Nc2cccc(Cl)c2)S1 (configuration not stated)",
    "readoutLabel": "growth inhibition",
    "observedValue": -8.85
  },
  {
    "compound": "C=C1C(=O)O[C@@H]2[C@H]3[C@H](C)C(=O)C=C[C@]3(C)CC[C@@H]12",
    "readoutLabel": "growth inhibition",
    "observedValue": 39
  },
  {
    "compound": "CC(=O)OC(C)C(=O)C1c2cccc(O)c2C(=O)c2c(O)cc(C)cc21 (configuration not stated)",
    "readoutLabel": "growth inhibition",
    "observedValue": 19.9
  },
  {
    "compound": "CN(C)c1ncnc2c1ncn2C1OC(CO)C(N)C1O (configuration not stated)",
    "readoutLabel": "growth inhibition",
    "observedValue": 26.1
  },
  {
    "compound": "N#Cc1ccc(CCc2ccccc2)cc1",
    "readoutLabel": "growth inhibition",
    "observedValue": 18.6
  }
]

src = PubChem BioAssay (NCI)
